The measurements presented in this section are drawn from paper PMC9927415.

Target or system: panel of 203 kinases (Homo sapiens)
Construct: purchased DiscoverX (KINOMEscan)
Experimental protocol: KINOMEscan competitive binding, whole panel
Test parameters: 10 µM, n=1; kinase JNK2; read-out: Percent inhibition JNK2
Reported endpoint: inhibition at 10 µM (%)
Give bare numbers, in %.

Reference set (5 entries):
Compound: CN1CCN(c2ccc(Nc3nccc(-c4cnn5ncccc45)n3)cc2C#N)CC1 [Compound 1]
Target or system: panel of 203 kinases (Homo sapiens)
Unit: %
Numeric result: 96.5
//
Compound: c1ccc(COc2cccc(-c3ccnc4[nH]ccc34)c2)cc1 [Compound 9]
Target or system: panel of 203 kinases (Homo sapiens)
Unit: %
Numeric result: 0
//
Compound: Fc1cccc(COc2ccc(Nc3ncnc4c3CN(CCN3CCOCC3)CC4)cc2Cl)c1 [Compound 6]
Target or system: panel of 203 kinases (Homo sapiens)
Unit: %
Numeric result: 0
//
Compound: Cc1ccc(O)cc1Nc1ccnc(Nc2cccc(C(N)=O)c2)n1 [Compound 3]
Target or system: panel of 203 kinases (Homo sapiens)
Unit: %
Numeric result: 0
//
Compound: C[C@@H](Oc1cc(-c2cnc3ccccn23)sc1C(N)=O)c1ccccc1Cl [Compound 8]
Target or system: panel of 203 kinases (Homo sapiens)
Unit: %
Numeric result: 0

Could you report inhibition at 10 µM for every entry in the following list?
1. Cc1ccc(O)cc1N(C)c1ccnc(Nc2cccc(S(N)(=O)=O)c2)n1 [Compound 4]
2. COc1cc(Nc2nccc(-c3sc(N)nc3-c3cccc(NC(=O)c4c(F)cccc4F)c3)n2)cc(OC)c1OC [Compound 7]
3. Clc1ccc(Nc2ncc(-c3ccccc3)s2)cc1 [Compound 10]
4. Nc1ncc2c(-c3ccncc3)c[nH]c2n1 [Compound 11]
5. COc1ccc(Nc2nccc(-c3cnn4ncccc34)n2)cc1 [Compound 2]

[71.3, 99, 0, 0, 99.1]

---

Consider the following compounds; for each one, report its inhibition at 10 µM.
Target or system: panel of 203 kinases (Homo sapiens)
Construct: purchased DiscoverX (KINOMEscan)
Experimental protocol: KINOMEscan competitive binding, whole panel
Test parameters: 10 µM, n=1; kinase ACVR1; read-out: Percent inhibition ACVR1
Description: The kinases were expressed as fusions to T7 bacteriophage. This is a sensitive, competitive binding assay where test compounds were used to displace immobilized ATP-site binding probe ligands from kinases of interest. The amount of kinase that remained bound to the immobilized probe ligands on the solid support was quantified. Percentage inhibition data were was plotted on kinome trees using the web-based tool KinMap (http://www.kinhub.org/kinmap) ([60]).
Answers are plain numbers, in %.

Below, 3 compounds whose answers are already recorded.
Test smiles: Cc1ccc(O)cc1Nc1ccnc(Nc2cccc(C(N)=O)c2)n1
Target or system: panel of 203 kinases (Homo sapiens)
Unit: %
inhibition at 10 µM: 99.7
--
Test smiles: Clc1ccc(Nc2ncc(-c3ccccc3)s2)cc1
Target or system: panel of 203 kinases (Homo sapiens)
Unit: %
inhibition at 10 µM: 0
--
Test smiles: C[C@@H](Oc1cc(-c2cnc3ccccn23)sc1C(N)=O)c1ccccc1Cl
Target or system: panel of 203 kinases (Homo sapiens)
Unit: %
inhibition at 10 µM: 0

Record inhibition at 10 µM for all entries; do not skip any.
1. Cc1ccc(O)cc1N(C)c1ccnc(Nc2cccc(S(N)(=O)=O)c2)n1
2. CN1CCN(c2ccc(Nc3nccc(-c4cnn5ncccc45)n3)cc2C#N)CC1

[99.9, 98.8]
